Potency values, listed per item
assay: Identifying Small Molecule Inhibitors of Pancreatic Cancer Stem Cells (Panc1, Spheroid) (AID 1259359); settings: Panc1 spheroid cancer stem cell viability; series mostly up to 46.1 µM;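 also: potency is read from the fitted curve at half-maximal effect; compound exposure lasted 48 h before reading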
Records with an inconclusive call do not appear. Active and inactive are the calls of the source. Calls follow the shape of the dose curve; as a rule, active = well fitted cell-killing curve with a large enough effect; inconclusive = small, poorly fitted or top-dose-only effect, or effect the other way, or another doubt; inactive = no such curve, though single readings can be large or run the other way.

Known results for compounds:
Exercise: Need Potency, item C=CCn1c(=O)c2cnc(Nc3ccc(N4CCN(C)CC4)cc3)nc2n1-c1cccc(C(C)(C)O)n1
Solution: 0.418 µM (active)

Exercise: Data request, read-out Potency, for CC(=O)OCC(=O)[C@@]1(O)[C@H](C)C[C@H]2[C@@H]3C=C(C)C4=Cc5c(cnn5-c5ccccc5)C[C@]4(C)[C@@H]3[C@@H](O)C[C@@]21C
Solution: 14.8 µM (active)

Turning now to a further record.
Exercise: I'd like to know its Potency. The compound in question is CCN1CCN(CC(=O)Nc2ccc(-c3cccc4c(=O)cc(N5CCOCC5)oc34)c3sc4ccccc4c23)CC1
Solution: 16.6 µM (active)

* * *

Assay: Quantitative High-Throughput drug screen in 47 multiple myeloma cell lines against the NCATS MIPE library collection: Karpas25_ECACC cell viability assay (AID 1918968; also: potency is read from the fitted curve at half-maximal effect; nearly all actives have a fitted effect of over 35% in size)
Settings: Karpas25 myeloma viability, CellTiter-Glo ATP, 48 h; series mostly up to 45.8 µM
From the text: PI: Beverly A. Mock Ph.D. Laboratory of Cancer Biology and Genetics, Center for Cancer Research, National Cancer Institute, National Institute of Health, Bethesda, Maryland […] 5; Detector; 425V; Luminescence; Viewlux PerkinElmer. […] 1. […] Briefly, the corresponding myeloma cell lines were screened in 1,536-well plates with 500 cells, 5-uL per well for inhibition of cell viability (assessed by measuring ATP levels with CellTiterGlo). […]
Inconclusive results are not listed. The source made the active and inactive calls. Calls follow the shape of the dose curve; as a rule, active = well fitted cell-killing curve with a large enough effect; inconclusive = small, poorly fitted or top-dose-only effect, or effect the other way; inactive = no such curve, though single readings can be large or run the other way.
Each record here notes measured Potency.

Exercise: Consider the molecule shown here: COc1ccc(OC)c(-c2nnc3ccc(-c4ccc(OC)c(O[C@@H]5CCOC5)c4)nn23)c1 What is its recorded Potency?
Solution: 6.62 µM (active)

Others:
Exercise: Can you look up the measured Potency of OCc1ccc(-c2ccc(-c3ccc(CO)s3)o2)s1 for me?
Solution: 3.72 µM (active)

Exercise: Any idea what Potency was measured for Cc1c(C)n(Cc2ccc(-c3ccccc3C(=O)O)cc2)c2ccc(C(=O)N[C@@H](C)c3ccc([N+](=O)[O-])cc3)cc12 ?
Solution: 5.26 µM (active)

Exercise: Field request: Potency | item: O=C(Nc1ncc(-c2cc(C(F)F)nn2-c2c(Cl)cccc2Cl)s1)C1CC1
Solution: 0.662 µM (active)

* * *

Measured z-score accompanies every entry in the list below.
assay: qHTS for identification of novel therapeutic agents for treatment of microphthalmiaassociated transcription factor (MiT) renal cell carcinoma (RCC) (AID 1963991); conditions: TFE3-RCC viability, CellTiter-Glo, 48 h; measured here: UOK124 Z-AUC; stronger effect = lower value;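 also: curves scaled with 100% = DMSO viability and 0% = empty wells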
Results filed as inconclusive are left out.

Exercise: Query: z-score; subject: C=CC(=O)Nc1cc2c(Nc3ccc(F)c(Cl)c3)ncnc2cc1C#CC(C)(C)N1CCN(C)CC1
Solution: -1.76

Exercise: Endpoint output: z-score of O=C(O)CCCc1c[nH]c2ccccc12 . Value?
Solution: 0.701

Exercise: What value of z-score has been reported for the following compound? C[C@H]1C[C@@H]2[C@@H]([C@@H](O)C[C@@]3(C)[C@H]2CC[C@]3(O)C(=O)CO)[C@@]2(C)C=CC(=O)C=C12
Solution: 0.208

Exercise: # get_value(readout='z-score', item= Cc1c(CN2CCN(S(C)(=O)=O)CC2)sc2c(N3CCOCC3)nc(-c3cnc(N)nc3)nc12 )
Solution: -2.43

Exercise: # input compound: Clc1cccc(-n2nnnc2NCc2ccccc2Oc2ccccn2)c1Cl ; wanted: its z-score
Solution: 0.284

***
Exercise: Can you look up the measured z-score of COCCn1c2c([n+](Cc3cnccn3)c1C)C(=O)c1ccccc1C2=O for me?
Solution: -3.42

Exercise: Return reported z-score; argument: O=C(Nc1ncc(-c2cc(C(F)F)nn2-c2c(Cl)cccc2Cl)s1)C1CC1
Solution: -1.43

Exercise: Looking for the measured z-score of CS(=O)(=O)N1CCN(Cc2cc3nc(-c4cccc5[nH]ncc45)nc(N4CCOCC4)c3s2)CC1 , can you help?
Solution: -1.58

Exercise: z-score for CC(C)c1noc(N2CCC(COc3ccc(-c4ccc(S(C)(=O)=O)cc4)nc3)CC2)n1 ?
Solution: 0.308

Exercise: Consider the compound shown here: CCc1c2c(nc3ccc(O)cc13)-c1cc3c(c(=O)n1C2)COC(=O)[C@]3(O)CC What is its recorded z-score?
Solution: -2.08

Exercise: I have this compound here, CC[C@@]1(O)C(=O)OCc2c1cc1n(c2=O)Cc2cc3cc(O)ccc3nc2-1 , and I need its recorded z-score.
Solution: -1.78

Exercise: Reported z-score for CCN1CCN(CC(=O)Nc2ccc(-c3cccc4c(=O)cc(N5CCOCC5)oc34)c3sc4ccccc4c23)CC1 : what is it?
Solution: -1.8

Exercise: Need z-score, item CCOc1cc2ncc(C#N)c(Nc3ccc(F)c(Cl)c3)c2cc1NC(=O)C=CCN(C)C
Solution: -1.47
